# System: NCCIT (Other Solid Carcinomas);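 further: after 72 h of two-drug dosing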
# Assay Text: Bliss excess, mean over the matrix (fraction); higher = more synergy
Recorded Bliss excess by entry

# Molecule, Bliss excess
data = [
    ("O=C(c1cc(Cc2n[nH]c(=O)c3ccccc23)ccc1F)N1CCN(C(=O)C2CC2)CC1 [Olaparib] + CN(CC[C@H](CSC1=CC=CC=C1)NC2=C(C=C(C=C2)S(=O)(=O)NC(=O)C3=CC=C(C=C3)N4CCC(CC4)[C@H](C5=CC=CC=C5C6=CC=C(C=C6)Cl)O)S(=O)(=O)C(F)(F)F)CCO [AZD4320] (first compound max 10 µM, 7x7, partner max 1 µM)", -0.0075),
    ("Cc1c2c(nn1C)CSCc1cc(n(C)n1)CSc1cc(c3ccccc3c1)OCCCc1c(C(=O)O)n(C)c3c-2c(Cl)ccc13 [AZD5991] + Nc1ccn([C@@H]2O[C@H](CO)[C@@H](O)C2(F)F)c(=O)n1 [Gemcitabine] (first compound max 1 µM, 7x7, partner max 0.3 µM)", -0.0617),
    ("CCc1c2c(nc3ccc(O)cc13)-c1cc3c(c(=O)n1C2)COC(=O)[C@]3(O)CC [SN-38] + CN(C)CCCOc1ccc(-c2ccc3ncc4c(c3c2)n(C2CCOCC2)c(=O)n4C)cn1 [AZD0156] (first compound max 0.3 µM, 7x7, partner max 1 µM)", 0.0163),
]
